Across several studies, molecules have been characterized by their pIC50 on MERTK (Homo sapiens, UniProt Q12866); a selection follows.
pIC50: −log10 of the molar value.

Illustrative cases are given below, each with its answer.
>>> observed("CC[C@H](C)Nc1ncc2c(=O)n(CC34CCC(N)(CC3)CC4)cc([C@H]3CC[C@H](O)CC3)c2n1")
"≥ 7.00"
>>> observed("COC[C@H](C)Nc1ncc2c(-c3cccc(C4CCc5nc(C)[nH]c5C4)c3)cc([C@H]3CC[C@H](O)CC3)n2n1 (stereo partly shown)")
"≥ 7.00"
>>> observed("CC(C)NC(=O)c1ccc(-c2n[nH]c3ncc(-c4ccc5c(c4)CCC(C)(N4CCC[C@H]4C)CC5)cc23)cc1 (stereo partly shown)")
"< 6.00"

Under MERTK (Homo sapiens, UniProt Q12866): pIC50 value of `Cn1cc(-c2cnc(N)c(C(=O)N[C@@H]3CCN(C(=O)c4ccc(-c5ccc(Oc6ccc(C(=O)O)cc6)cc5)cc4)C3)c2)cn1` ?
7.00 to 8.00

Form field - read-out: pIC50; system: MERTK (Homo sapiens, UniProt Q12866); submitted item: `Cn1cc(-c2cnc(N)c(C(=O)N[C@@H]3CCN(C(=O)Nc4ccc(-c5ccc(CN)cc5)cc4)C3)c2)cn1`
< 6.00

For MERTK (Homo sapiens, UniProt Q12866), provide pIC50 of `Nc1ncc(-c2cnn(C3CCNCC3)c2)cc1-c1nnc(-c2ccccc2)o1` please.
> 6.30

Param readout= pIC50; system= MERTK (Homo sapiens, UniProt Q12866); entry= `COC[C@H](C)Nc1ncc2c(-c3ccnc(N4CCNC(=O)C4)c3)cc([C@H]3CC[C@H](O)CC3)n2n1` ; returns value.
≥ 7.00

* * *

The following compounds were reported with pIC50 values on MERTK (Homo sapiens, UniProt Q12866) in different studies.
pIC50: −log10 of the molar value.

>>> observed("CCCC(C)Nc1ncc2c(N3CC[C@H](N(C)C)C3)ncc([C@H]3CC[C@H](O)CC3)c2n1 (stereo partly shown)")
"≥ 7.00"
>>> observed("O=C([C@H]1CCCN1)N1CCc2ccc(-c3cnc4[nH]nc(-c5ccc(S(=O)(=O)C6CC6)cc5)c4c3)cc2CC1")
"< 6.00"
>>> observed("CN(C)C(=O)c1ccc(-c2n[nH]c3ncc(-c4ccc5c(c4)CC[C@@H](N4C6COCC4C6)CC5)cc23)cc1")
"6.00 to 7.00"
>>> observed("CC[C@H](C)Nc1ncc2c(=O)n(CC34CCC(N(C)C)(CC3)CC4)cc([C@H]3CC[C@H](O)CC3)c2n1")
"≥ 7.00"
>>> observed("COC[C@H](C)Nc1ncc2c(C3=CCN(C(=O)OC(C)(C)C)CC3)cc([C@H]3CC[C@H](O)CC3)n2n1")
"≥ 7.00"
>>> observed("CC(C)(C)C(=O)N1CCC(n2cc(-c3cnc(N)c(-c4ncc(-c5cccc(Cl)c5)o4)c3)cn2)CC1")
"5.00 to 6.00"
>>> observed("COC[C@H](C)Nc1ncc2c(-c3cnn(CC(=O)O)c3)cc([C@H]3CC[C@H](O)CC3)n2n1")
"≥ 7.00"
>>> observed("CCCCNc1ncc2c(-c3ccc(S(=O)(=O)N4CCOCC4)cc3)cc([C@H]3CC[C@H](O)CC3)n2n1")
"≥ 7.00"

GET /values?readout=pIC50&system=MERTK (Homo sapiens, UniProt Q12866)&item= CC(Nc1ncc2c(-c3ccc(CN4CCN(C)CC4)cc3)cc([C@H]3CC[C@H](O)CC3)n2n1)C(F)F (mixture of isomers)
≥ 7.00

Param readout = pIC50; param system = MERTK (Homo sapiens, UniProt Q12866); param query = `Cn1cc(-c2cnc(N)c(C(=O)N[C@@H]3CCN(C(=O)Nc4cccc(Cl)c4)C3)c2)cn1` ; response: value
< 6.00

For the record `CNS(=O)(=O)c1ccc(-c2cc([C@H]3CC[C@H](O)CC3)n3nc(N[C@@H](C)CC(F)(F)F)ncc23)cn1` , what value of pIC50 is listed for MERTK (Homo sapiens, UniProt Q12866)?
≥ 7.00

API: value(readout=pIC50, system=MERTK (Homo sapiens, UniProt Q12866)) for record `CCOc1cn(-c2ccc(F)cc2C)nc1C(=O)Nc1ccc(Oc2ccnc3cc(OC)c4c(c23)OCCO4)c(F)c1`
6.30 to 7.30

What pIC50 appears in the records for this compound with MERTK (Homo sapiens, UniProt Q12866)? `Cn1cc(-c2cnc(N)c(C(=O)N[C@@H]3CCN(C(=O)[C@H]4C[C@@H]4c4ccccc4)C3)c2)cn1`
< 6.00

Reported pIC50 for MERTK (Homo sapiens, UniProt Q12866), given `Cn1cc(-c2cnc(N)c(C(=O)N[C@@H]3CCN(C(=O)c4ccc(-c5ccccc5Cl)cn4)C3)c2)cn1` ?
6.00 to 7.00

So what pIC50 did `Cn1cc(-c2cnc(N)c(C(=O)N[C@@H]3CCN(C(=O)c4cccc(-c5ccc(C(=O)N6CCNCC6)cc5)c4)C3)c2)cn1` get with MERTK (Homo sapiens, UniProt Q12866)?
< 6.00

* * *

Reported IC50 on MERTK (Homo sapiens, UniProt Q12866) for assorted compounds, compiled from publications.

Example entries and their recorded answers appear below.
>>> observed("CCCC(C)Nc1ncc2c(O[C@@H]3CCCN(C)C3)ncc([C@H]3CC[C@H](O)CC3)c2n1 (stereo partly shown)")
"≤ 100 nM"
>>> observed("COc1cc2nccc(Oc3ccc(NC(=O)c4cn(C)c(=O)n(-c5ccc(F)cc5)c4=O)c(Cl)c3)c2c2c1OCCO2")
"50 to 500 nM"
>>> observed("Cn1cc(-c2cnc(N)c(C(=O)N[C@@H]3CCN(C(=O)Nc4cc(C(F)(F)F)cc(C(F)(F)F)c4)C3)c2)cn1")
"> 1000 nM"

Give MERTK (Homo sapiens, UniProt Q12866) IC50 for `COC[C@H](C)Nc1ncc2c(-c3cnn(C(C)(C)C)c3)cc([C@H]3CC[C@H](O)CC3)n2n1`
≤ 100 nM

# returns recorded IC50 (system: MERTK (Homo sapiens, UniProt Q12866)) for `Nc1ncc(-c2cnn(C3CCNCC3)c2)cc1-c1ncc(-c2cccnc2)o1`
< 500 nM

Give MERTK (Homo sapiens, UniProt Q12866) IC50 for `Nc1ncc(-c2cnn(C3CCNCC3)c2)cc1-c1nnc(Cc2ccccc2)o1`
< 500 nM

Could you share what IC50 was measured for C[C@@H]1CCCN1C1(C)CCc2ccc(-c3cnc4[nH]nc(-c5cnc(C(C)(C)O)c(Cl)c5)c4c3)cc2CC1 (stereo partly shown) , tested on MERTK (Homo sapiens, UniProt Q12866)?
100 to 1000 nM

Test system MERTK (Homo sapiens, UniProt Q12866); read-out IC50; what value for `COC[C@H](C)Nc1ncc2c(-c3ccc(CN4CCOCC4)nc3)cc([C@H]3CC[C@H](O)CC3)n2n1` ?
≤ 100 nM

Provide the documented IC50 with MERTK (Homo sapiens, UniProt Q12866) as the system for `Cn1cc(-c2cnc(N)c(C(=O)N[C@@H]3CCN(C(=O)Nc4cccc(CN5CCOCC5)c4)C3)c2)cn1`
> 1000 nM

* * *

pIC50: −log10 of the molar value.
Recorded pIC50 for compounds tested on MERTK (Homo sapiens, UniProt Q12866), drawn from a number of studies.

>>> observed("COC1CCN(C(=O)c2ccc(-c3n[nH]c4ncc(-c5ccc6c(c5)CC[C@@H](N5CCCC5)CC6)cc34)cc2Cl)CC1")
"6.00 to 7.00"
>>> observed("Cn1cc(-c2cnc(N)c(C(=O)NC[C@H]3CCCN3C(=O)c3ccc(-c4ccccc4)cc3)c2)cn1")
"< 6.00"
>>> observed("O=C(Nc1ccc(Oc2ccnc3cc(OCCCN4CCCCC4)c4c(c23)OCCO4)cc1Cl)c1cccn(-c2ccc(F)cc2)c1=O")
"≥ 7.30"
>>> observed("Cc1ccc(-c2cn(C3CCOCC3)nc(C(=O)Nc3ccc(Oc4ccnc5cc6c(cc45)OCCO6)cn3)c2=O)cc1")
7.70
>>> observed("COC[C@H](C)Nc1ncc2c(-c3ccnc(N4CCC5(COC5)C4)c3)cc([C@H]3CC[C@H](O)CC3)n2n1")
"≥ 7.00"
>>> observed("Cn1cc(-c2cnc(N)c(C(=O)N[C@@H]3CCN(C(=O)c4cc5ccccc5n4Cc4ccccc4)C3)c2)cn1")
"< 6.00"

Field: next compound
Param readout = pIC50; param system = MERTK (Homo sapiens, UniProt Q12866); param query = `Cn1cc(-c2cnc(N)c(C(=O)N[C@@H]3CCN(C(=O)Nc4cccc(-c5ccc(N)cc5)c4)C3)c2)cn1` ; response: value
6.00 to 7.00

* * *

Below are IC50 measurements against MERTK (Homo sapiens, UniProt Q12866) drawn from the literature.

Illustrative cases are given below, each with its answer.
>>> observed("COc1ccc2nccc(Oc3ccc(NC(=O)c4ccc(C)n(-c5ncc(F)cc5C)c4=O)cc3F)c2n1")
"≤ 100 nM"
>>> observed("Cn1cc(-c2cnc(N)c(C(=O)N[C@@H]3CCN(CC=Cc4ccccc4)C3)c2)cn1")
"100 to 1000 nM"
>>> observed("Cn1cc(-c2cnc(N)c(C(=O)N[C@@H]3CCN(C(=O)Nc4cccc(-c5ccc(CO)cc5)c4)C3)c2)cn1")
"100 to 1000 nM"
>>> observed("Cn1cc(-c2cnc(N)c(C(=O)N[C@@H]3CCN(C(=O)c4ccc(-c5ccc(Oc6ccnc(Cl)c6)cc5)cc4)C3)c2)cn1")
"10 to 100 nM"
>>> observed("COCCN1C(C)(C)CC(Oc2ncc([C@H]3CC[C@H](O)CC3)c3nc(N[C@@H](C)CC#N)ncc23)CC1(C)C")
"≤ 100 nM"

Enter reported IC50 observed with MERTK (Homo sapiens, UniProt Q12866) for C[C@@H]1CCCN1C1CCc2ccc(-c3cnc4[nH]nc(-c5ccc(C(C)(C)O)c(C(F)(F)F)c5)c4c3)cc2CC1 (stereo partly shown)
100 to 1000 nM

Notebook: pull reported IC50 for MERTK (Homo sapiens, UniProt Q12866), entry `CNC(=O)c1cc(-c2cc([C@H]3CC[C@H](O)CC3)n3nc(N[C@@H](C)COC(F)F)ncc23)ccn1`
≤ 100 nM
